Just for reference, patent US20240391931A1 is where these values come from.

Items are presented alongside their recorded pEC50.
- system: EGFR (Homo sapiens, UniProt P00533)
- Sequence (P00533 25-1210): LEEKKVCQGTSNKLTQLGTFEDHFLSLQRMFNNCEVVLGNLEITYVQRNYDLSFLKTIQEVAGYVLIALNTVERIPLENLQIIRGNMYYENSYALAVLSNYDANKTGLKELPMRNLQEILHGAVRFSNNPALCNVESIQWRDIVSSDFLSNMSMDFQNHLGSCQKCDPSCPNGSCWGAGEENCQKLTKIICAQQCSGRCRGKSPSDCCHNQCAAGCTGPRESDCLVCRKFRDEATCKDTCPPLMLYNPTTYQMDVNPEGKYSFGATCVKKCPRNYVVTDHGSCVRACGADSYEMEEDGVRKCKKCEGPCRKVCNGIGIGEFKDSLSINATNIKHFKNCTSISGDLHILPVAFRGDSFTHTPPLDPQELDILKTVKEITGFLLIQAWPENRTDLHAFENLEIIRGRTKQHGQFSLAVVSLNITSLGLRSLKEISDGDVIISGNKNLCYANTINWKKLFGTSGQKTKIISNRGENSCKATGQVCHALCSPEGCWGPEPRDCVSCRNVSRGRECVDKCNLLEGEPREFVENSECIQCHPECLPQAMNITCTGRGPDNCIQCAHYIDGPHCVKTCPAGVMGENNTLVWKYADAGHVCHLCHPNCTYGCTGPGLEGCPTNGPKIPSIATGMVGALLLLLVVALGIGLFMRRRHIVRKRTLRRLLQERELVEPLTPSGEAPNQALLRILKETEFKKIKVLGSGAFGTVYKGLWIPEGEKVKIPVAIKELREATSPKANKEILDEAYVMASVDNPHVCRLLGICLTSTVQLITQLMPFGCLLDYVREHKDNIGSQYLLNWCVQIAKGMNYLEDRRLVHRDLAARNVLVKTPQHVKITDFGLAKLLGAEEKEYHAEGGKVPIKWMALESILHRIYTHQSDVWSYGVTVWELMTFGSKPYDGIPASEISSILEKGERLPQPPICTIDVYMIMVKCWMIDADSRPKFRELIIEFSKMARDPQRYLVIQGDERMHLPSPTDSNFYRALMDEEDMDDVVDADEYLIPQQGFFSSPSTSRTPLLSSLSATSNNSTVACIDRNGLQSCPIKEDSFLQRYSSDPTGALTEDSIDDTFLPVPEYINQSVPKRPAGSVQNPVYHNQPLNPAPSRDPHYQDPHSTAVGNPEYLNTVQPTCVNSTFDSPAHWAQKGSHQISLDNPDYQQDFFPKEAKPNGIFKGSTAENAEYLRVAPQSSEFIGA
- runDescription: EGFR signaling (pEGFR Tyr1068/total EGFR MSD) in A431 cells
- Format: cell-based
- Design: endogenous in cells; host or cells: A431, N87
- conditionDetails: A431 cells; read-out: A431 pEGFR EC50
pEC50: −log10 of the molar value.

compound	pEC50
Cc1cc(Nc2ncnc3sc4c(c23)CCN(C(=O)/C=C/CN(C)C)CC4)ccc1Oc1ccn2ncnc2c1 [Compound 168]	5.00 to 6.00
Cc1ccc(Oc2ccc(Nc3ncnc4sc5c(c34)CCN(C(=O)/C=C/CN3CCOCC3(C)C)C5)cc2C)cn1 [Compound 29]	> 7.00
Cc1ccc(Oc2ccc(Nc3ncnc4sc5c(c34)CCN(C(=O)/C=C/CNC34CCC(C#N)(CC3)CC4)C5)cc2C)cn1 [Compound 72]	> 7.00
Cc1ccc(Oc2ccc(Nc3ncnc4sc5c(c34)CCN(C(=O)/C=C/CN3CCOCC34CCC4)C5)cc2C)cn1 [Compound 31]	6.00 to 7.00

###

- system: HER2 WT (Homo sapiens, UniProt P04626)
pIC50: −log10 of the molar value.
Items are presented alongside their recorded pIC50.
assayEndpoint: pIC50

compound	assayEndpoint	measValue
Cc1ccc(Oc2ccc(Nc3ncnc4sc5c(c34)CCN(C(=O)/C=C/CNC3CCC3)C5)cc2C)cn1	pIC50	> 7.00
Cc1cc(Nc2ncnc3sc4c(c23)CN(C(=O)/C=C/CN(C)C)C4)ccc1Oc1ccc2ncnn2c1	pIC50	> 7.00
Cc1ccc(Oc2ccc(Nc3ncnc4sc5c(c34)CCN(C(=O)/C=C/CN[C@H]3CC[C@H](OCC(F)(F)F)CC3)C5)cc2C)cn1	pIC50	> 7.00
CC(=O)N1CCN(C/C=C/C(=O)N2CCc3c(sc4ncnc(Nc5ccc(Oc6ccc(C)nc6)c(C)c5)c34)C2)CC1	pIC50	> 7.00
Cc1cc(Nc2ncnc3sc4c(c23)CCN(C(=O)/C=C/CN2CC3CCC(C3)C2)C4)ccc1Oc1ccc2ncnn2c1	pIC50	> 7.00
Cc1ccc(Oc2ccc(Nc3ncnc4sc5c(c34)CCN(C(=O)/C=C/CN3CCC(O)C(C)(C)C3)C5)cc2C)cn1 (centres unmarked)	pIC50	> 7.00
Cc1ccc(Oc2ccc(Nc3ncnc4sc5c(c34)CCCN(C(=O)/C=C/CN(C)C)C5)cc2C)cn1	pIC50	> 7.00
COc1cc(Nc2ncnc3sc4c(c23)CCN(C(=O)/C=C/CN(C)C)C4)ccc1Oc1ccccc1	pIC50	> 7.00
Cc1ccc(Oc2ccc(Nc3ncnc4sc5c(c34)CCN(C(=O)/C=C/CN3CCOC[C@@H]3C)C5)cc2C)cn1	pIC50	> 7.00
Cc1ccc(Oc2ccc(Nc3ncnc4sc5c(c34)CCN(C(=O)/C=C/CNC3CC3)C5)cc2C)cn1	pIC50	> 7.00
Cc1ccc(Oc2ccc(Nc3ncnc4sc5c(c34)CCN(C(=O)/C=C/CN3CC4CC(C4)C3)C5)cc2C)cn1	pIC50	> 7.00
Cc1cc(Nc2ncnc3sc4c(c23)CCN(C(=O)/C=C/CN(C)C)C4)ccc1Oc1ccc2cn[nH]c2c1	pIC50	> 7.00
Cc1ccc(Oc2ccc(Nc3ncnc4sc5c(c34)CCN(C(=O)/C=C/CN3CC4(CCCC4)C3)C5)cc2C)cn1	pIC50	> 7.00
Cc1ccc(Oc2ccc(Nc3ncnc4sc5c(c34)CCN(C(=O)/C=C/CNCCS(C)(=O)=O)C5)cc2C)cn1	pIC50	> 7.00

###

- system: HER2 wildtype (WT) protein (Homo sapiens, UniProt P04626)
- Construct: BT474 and N87 cell lines which endogenously overexpress the HER2 wildtype (WT) protein; endogenous in cells; host or cells: BT474, N87
- Sequence (P04626 23-1255): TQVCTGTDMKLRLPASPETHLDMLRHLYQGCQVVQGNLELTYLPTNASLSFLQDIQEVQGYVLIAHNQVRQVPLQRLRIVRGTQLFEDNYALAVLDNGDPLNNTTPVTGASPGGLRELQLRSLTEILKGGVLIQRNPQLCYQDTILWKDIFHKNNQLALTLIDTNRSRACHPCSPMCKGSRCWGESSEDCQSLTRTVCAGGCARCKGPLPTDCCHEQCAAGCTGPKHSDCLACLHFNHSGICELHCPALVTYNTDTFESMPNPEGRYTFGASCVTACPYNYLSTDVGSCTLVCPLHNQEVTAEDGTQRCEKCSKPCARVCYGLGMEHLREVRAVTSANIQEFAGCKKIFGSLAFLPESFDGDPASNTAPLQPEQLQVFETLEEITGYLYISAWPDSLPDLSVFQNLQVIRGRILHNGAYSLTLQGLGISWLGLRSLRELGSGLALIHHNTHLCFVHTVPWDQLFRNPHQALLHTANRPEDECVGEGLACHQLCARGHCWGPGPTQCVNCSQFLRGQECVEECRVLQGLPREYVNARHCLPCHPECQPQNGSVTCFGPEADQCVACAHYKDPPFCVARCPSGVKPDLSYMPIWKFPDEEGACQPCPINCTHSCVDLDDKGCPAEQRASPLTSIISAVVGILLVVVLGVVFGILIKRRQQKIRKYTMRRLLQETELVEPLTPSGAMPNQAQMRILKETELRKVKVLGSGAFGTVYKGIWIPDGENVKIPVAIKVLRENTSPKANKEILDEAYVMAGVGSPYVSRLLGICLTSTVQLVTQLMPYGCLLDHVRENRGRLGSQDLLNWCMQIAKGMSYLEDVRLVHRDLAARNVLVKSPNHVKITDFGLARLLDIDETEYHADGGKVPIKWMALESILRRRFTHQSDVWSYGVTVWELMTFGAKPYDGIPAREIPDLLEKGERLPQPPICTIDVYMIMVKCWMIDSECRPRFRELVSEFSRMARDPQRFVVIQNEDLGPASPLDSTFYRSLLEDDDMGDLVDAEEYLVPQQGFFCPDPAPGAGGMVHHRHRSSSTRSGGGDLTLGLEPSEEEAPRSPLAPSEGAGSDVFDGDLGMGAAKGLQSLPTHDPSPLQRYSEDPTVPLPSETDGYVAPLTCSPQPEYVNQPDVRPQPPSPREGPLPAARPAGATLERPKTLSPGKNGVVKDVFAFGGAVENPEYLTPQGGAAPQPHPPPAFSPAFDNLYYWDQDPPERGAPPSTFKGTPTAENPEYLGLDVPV
- runDescription: HER2 signaling (pHER2 Tyr1248/total HER2 MSD) in BT474 cells
- Type: cell-based
- conditionDetails: 1.5 hr compound, 1% FBS
pEC50: −log10 of the molar value. Counter-ions that a name gives are not always drawn.

compound	pEC50
Cc1ccc(Oc2ccc(Nc3ncnc4sc5c(c34)CCN(C(=O)/C=C/CN3CCCC3C(N)=O)C5)cc2C)cn1 (stereo not shown)	> 7.00
Cc1cn2ccc(Oc3ccc(Nc4ncnc5sc6c(c45)CCN(C(=O)/C=C/CN(C)C)C6)cc3C)cc2n1	> 7.00
Cc1cc(Nc2ncnc3sc4c(c23)CCN(C(=O)/C=C/CN2CCOCC2)C4)ccc1Oc1ccc2ncnn2c1	> 7.00
COc1ccc(Oc2ccc(Nc3ncnc4sc5c(c34)CCN(C(=O)/C=C/CN(C)C(C)(C)C)C5)cc2C)cn1	> 7.00
Cc1ccc(Oc2ccc(Nc3ncnc4sc5c(c34)CCN(C(=O)/C=C/CN3CC4CCC(C4)C3)C5)cc2C)cn1 [Compound 16, benzenesulfonate salt]	> 7.00
COc1ccc(Oc2ccc(Nc3ncnc4sc5c(c34)CN(C(=O)/C=C/CN(C)C)C5)cc2C)cn1	> 7.00
Cc1ccc(Oc2ccc(Nc3ncnc4sc5c(c34)CCN(C(=O)/C=C/CN3CC(CO)(CO)C3)C5)cc2C)cn1	6.46 to 7.00
Cc1ccc(Oc2ccc(Nc3ncnc4sc5c(c34)CC(C)N(C(=O)C=CCN(C)C)C5C)cc2C)cn1 (single isomer, unassigned) [Compound 162]	6.46 to 7.00
Cc1ccc(Oc2ccc(Nc3ncnc4sc5c(c34)CCN(C(=O)/C=C/CN3CC4CC4(CO)C3)C5)cc2C)cn1 (stereo not shown)	> 7.00
Cc1ccc(Oc2ccc(Nc3ncnc4sc5c(c34)C(C)CN(C(=O)C=CCN3CCOCC3)C5)cc2C)cn1 (single isomer, unassigned) [Compound 177]	> 7.00
Cc1ccc(Oc2ccc(Nc3ncnc4sc5c(c34)CCN(C(=O)/C=C/CN3CC4(CCCC4)C3)C5)cc2C)cn1	> 7.00
Cc1ccc(Oc2ccc(Nc3ncnc4sc5c(c34)CCN(C(=O)/C=C/CN3CCC[C@H](CO)C3)C5)cc2C)cn1	> 7.00
Cc1ccc(Oc2ccc(Nc3ncnc4sc5c(c34)C(C)N(C(=O)C=CCN(C)C)C5)cc2C)cn1 (single isomer, unassigned) [Compound 148]	6.46 to 7.00
Cc1ccc(Oc2ccc(Nc3ncnc4sc5c(c34)CN(C(=O)C=CCN(C)C)C5C)cc2C)cn1 (single isomer, unassigned) [Compound 170]	6.00 to 6.46
Cc1ccc(Oc2ccc(Nc3ncnc4sc5c(c34)CCN(C(=O)/C=C/CN3CCC(O)C(C)(C)C3)C5)cc2C)cn1 (stereo not shown)	> 7.00
Cc1ccc(Oc2ccc(Nc3ncnc4sc5c(c34)CCN(C(=O)/C=C/CNCCO)C5)cc2C)cn1	> 7.00
Cc1ccc(Oc2ccc(Nc3ncnc4sc5c(c34)CCN(C(=O)/C=C/CN3CC(O)CO3)C5)cc2C)cn1 (stereo not shown)	6.00 to 6.46
Cc1cc(Nc2ncnc3sc4c(c23)CN(C(=O)/C=C/CN(C)C)C4)ccc1Oc1ccn2ncnc2c1	> 7.00
Cc1cc(Nc2ncnc3sc4c(c23)CCN(C(=O)/C=C/CN(C)C)C4)ccc1Oc1ccn2ncnc2c1	> 7.00

###

- system: EGFR (Homo sapiens, UniProt P00533)
- runDescription: EGFR signaling (pEGFR Tyr1068/total EGFR MSD) in A431 cells
- Assay type: cell-based
- Set-up: endogenous in cells; host or cells: A431, N87
- conditionDetails: ratio A431 pEGFR EC50 to BT474 pHER2 EC50
assayEndpoint: Selectivity A431 EC50/BT474 EC50

compound	assayEndpoint	measValue
Cc1ccc(Oc2ccc(Nc3ncnc4sc5c(c34)C(C)CN(C(=O)C=CCN(C)C(C)(C)C)C5)cc2C)cn1 (single isomer, unassigned) [Compound 178]	Selectivity A431 EC50/BT474 EC50	D (D: ≥ 5 and < 10)
Cc1ccc(Oc2ccc(Nc3ncnc4sc5c(c34)CCN(C(=O)/C=C/CN3CC[C@@H](CO)C3)C5)cc2C)cn1	Selectivity A431 EC50/BT474 EC50	B (B: ≥ 20 and < 100)
Cc1ccc(Oc2ccc(Nc3ncnc4sc5c(c34)CCN(C(=O)/C=C/CN3CCN4C(=O)CCC4C3)C5)cc2C)cn1 (stereo not shown)	Selectivity A431 EC50/BT474 EC50	C (C: ≥ 10 and < 20)
Cc1ccc(Oc2ccc(Nc3ncnc4sc5c(c34)CCN(C(=O)/C=C/CN3CC4CCC3C4)C5)cc2C)cn1 (stereo not shown)	Selectivity A431 EC50/BT474 EC50	D (D: ≥ 5 and < 10)
Cc1ccc(Oc2ccc(Nc3ncnc4sc5c(c34)CN(C(=O)/C=C/CN(C)C)C5)cc2C)cn1	Selectivity A431 EC50/BT474 EC50	B (B: ≥ 20 and < 100)
Cc1ccc(Oc2ccc(Nc3ncnc4sc5c(c34)C(C)N(C(=O)/C=C/CN(C)C)C5)cc2C)cn1 (stereo not shown)	Selectivity A431 EC50/BT474 EC50	B (B: ≥ 20 and < 100)
Cc1ccc(Oc2ccc(Nc3ncnc4sc5c(c34)CCN(C(=O)/C=C/CN3C[C@H]4CC[C@@H](C3)O4)C5)cc2C)cn1	Selectivity A431 EC50/BT474 EC50	C (C: ≥ 10 and < 20)
